Sourced from PubChem BioAssay (NCATS)

test system: TAB109; assay: qHTS profiling for inhibitors of Plasmodium falciparum proliferation (AID 504749);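 further: 0% = DMSO vehicle and full inhibition = artemisinin control; nearly all actives have a fitted effect of over 60% in size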; settings: P. falciparum in erythrocytes, SYBR Green DNA, 72 h; series mostly up to 28.7 µM
Records with an inconclusive call do not appear. Calls of active or inactive are those of the source. The call rests on the fitted dose curve; in most records, active means well fitted inhibition curve with a large enough effect; inconclusive means small, poorly fitted or top-dose-only effect; inactive means flat fitted curve, though single readings scatter.
Select the matching outcome among active, inactive

[
  {
    "Compound": "Cc1[nH]c(=O)c(C#N)cc1-c1ccc2nccn2c1",
    "Class label": "inactive"
  },
  {
    "Compound": "Nc1nc2c(ncn2COCCO)c(=O)[nH]1",
    "Class label": "inactive"
  },
  {
    "Compound": "COc1ccc2nc(S(=O)Cc3ncc(C)c(OC)c3C)[nH]c2c1 (stereo not drawn)",
    "Class label": "inactive"
  },
  {
    "Compound": "CCc1ccc(CCOc2ccc(CC3SC(=O)NC3=O)cc2)nc1 (stereo not drawn)",
    "Class label": "inactive"
  },
  {
    "Compound": "CNC[C@H](O)c1cccc(O)c1",
    "Class label": "inactive"
  }
]

Please share the test call associated with "Nc1ccc(S(=O)(=O)Nc2ccnn2-c2ccccc2)cc1" .
inactive

Please share the test call associated with "NCCc1ccc(O)c(O)c1" .
inactive

Please share the test call associated with "Clc1cccc(Cl)c1NC1=NCCN1" .
inactive

* * *

test: Quantitative High-Throughput drug screen in 47 multiple myeloma cell lines against the NCATS MIPE library collection: H1112_PLB cell viability assay (AID 1918967; further: nearly all actives have a fitted effect of over 30% in size); conditions: H1112 myeloma cells viability, ATP luminescence, 48 h; series mostly up to 45.8 µM
Results filed as inconclusive are left out. The source made the active and inactive calls. Calls come from the whole dose curve; as a rule, active = well fitted cell-killing curve with a large enough effect; inconclusive = small, poorly fitted or top-dose-only effect, or effect the other way; inactive = no such curve, though single readings can be large or run the other way.
Select the matching outcome among 1.0 (active), 0.0 (inactive)

Look over these answered cases.
[
  {
    "Molecule": "COc1cc2nccc(Oc3ccc(NC(=O)NC4CC4)c(Cl)c3)c2cc1C(N)=O",
    "Class label": 1.0
  },
  {
    "Molecule": "NNCCc1ccccc1",
    "Class label": 1.0
  },
  {
    "Molecule": "OCCn1cc(-c2cnc3nnn(Cc4ccc5ncccc5c4)c3n2)cn1",
    "Class label": 0.0
  }
]

Please share the test call associated with O=C1CCCC2=C1C(c1[nH]ncc1Cl)N=C(Nc1nc3ccccc3o1)N2 (stereo unspecified) .
0.0

Please share the test call associated with CN(C)c1ccc(C2Nc3ccc4ccccc4c3C3=C2C(=O)CC(C)(C)C3)cc1Br (stereo unspecified) .
1.0

Please share the test call associated with "Cc1csc(NC(=O)c2sc3nc4c(c(C(F)(F)F)c3c2N)CCC4)n1" .
0.0

* * *

assay: Cell Proliferation Assay against the TMD8 Cell Line (Caspase readout at 8 hrs) (AID 651713); conditions: TMD8 lymphoma cells, caspase activation luminescence; series mostly up to 46.1 µM;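 on caspase activation: 0% = DMSO and 100% = 9.2 µM bortezomib caspase signal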
Records with an inconclusive call do not appear. Active and inactive are the calls of the source. Calls come from the whole dose curve; as a rule, active = well fitted activation curve with a large enough effect; inconclusive = small, poorly fitted or top-dose-only effect, or another doubt; inactive = no such curve, though single readings can be large or run the other way.
Select the matching outcome among t (active), f (inactive)

[
  {
    "Compound": "c1ccc(-c2nn3c(c2-c2ccnc4cc(OCCN5CCOCC5)ccc24)CCC3)nc1",
    "Class label": "f"
  },
  {
    "Compound": "NC(=O)c1ccc(-c2nc(-c3ccc4c(c3)OCO4)c(-c3ccccn3)[nH]2)cc1",
    "Class label": "f"
  },
  {
    "Compound": "CCn1c(-c2nonc2N)nc2cnc(Oc3cccc(NC(=O)c4ccc(OCCN5CCOCC5)cc4)c3)cc21",
    "Class label": "f"
  }
]

Please share the test call associated with "CCOC(=O)N[C@@H]1CC[C@@H]2[C@@H](C1)C[C@H]1C(=O)O[C@H](C)[C@H]1[C@@H]2C=Cc1ccc(-c2cccc(F)c2)cn1" .
f

Please share the test call associated with "O=S(=O)(N=Cc1c(O)ccc2ccccc12)c1cccs1" .
f

Please share the test call associated with "Cc1ccc(-n2nc(C(C)(C)C)cc2NC(=O)Nc2ccc(OCCN3CCOCC3)c3ccccc23)cc1" .
f

Please share the test call associated with "NC(=O)c1ccc(I)c([N+](=O)[O-])c1" .
f

Please share the test call associated with "Nc1nccc(-c2ccc3noc(-c4ccc(Cl)cc4)c3c2)n1" .
f

Please share the test call associated with "C[C@]1(c2nc3c(C(N)=O)cccc3[nH]2)CCCN1" .
f

Please share the test call associated with "CCCCCCCc1ccc(CCc2cccc(O)c2C(=O)O)cc1" .
f

Please share the test call associated with "COc1cc(Nc2ncc3c(n2)-c2ccc(Cl)cc2C(c2c(F)cccc2OC)=NC3)ccc1C(=O)O" .
f

Please share the test call associated with "CN[C@@H](C)C(=O)N[C@H]1CCCC[C@H]2CC[C@@H](C(=O)N[C@@H](c3ccccc3)c3cn(CCCCc4ccc(CCCCn5cc([C@@H](NC(=O)[C@@H]6CC[C@@H]7CCCC[C@H](NC(=O)[C@H](C)NC)C(=O)N76)c6ccccc6)nn5)cc4)nn3)N2C1=O" .
f

Please share the test call associated with "COc1ccc(-c2ccc3c(N4CCOCC4)nc(N4C[C@@H](C)O[C@@H](C)C4)nc3n2)cc1CO" .
f

Please share the test call associated with "O=C(NOC[C@H](O)CO)c1ccc(F)c(F)c1Nc1ccc(I)cc1F" .
f

Please share the test call associated with "CS(=O)(=O)Oc1ccc2c(NC(N)=O)c(C(=O)c3ccc(Cl)cc3Cl)oc2c1" .
f

Please share the test call associated with "COc1c(Cl)cc2c([nH]c3cnccc32)c1NC(=O)c1cccnc1C" .
f

Please share the test call associated with "COc1ccccc1-c1cccc(-c2c(O)c3cc(C#N)c(Cl)cc3[nH]c2=O)c1" .
f

Please share the test call associated with "COc1ccc(-c2oc3cc(OC)ccc3c2C(=O)c2ccc(C#N)cc2)cc1" .
f

Please share the test call associated with "O=C(C1CC1)N1CC[C@@H](Cn2c(-c3ccc(-c4ccc5occc5c4)cc3)nc3cnccc32)C1" .
t

Please share the test call associated with CC(c1cc2ccccc2s1)N(O)C(N)=O (stereo not given) .
f
